Reported pKd by item:
Target Under Test: T1, recombinant human IGF-II (Insulin-like Growth Factor II) (human, UniProt P01344 25-91, biotinylated (Biotinyl-IGF-II, GroPep) where immobilised in SPR, site not stated; not biotinylated in ITC and as SPR analyte)
T1 construct: also called IGF2; IGF-2
T1 sequence (P01344 25-91 limits assumed): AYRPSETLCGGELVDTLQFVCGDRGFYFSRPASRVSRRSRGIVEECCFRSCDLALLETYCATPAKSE
Protocol: SPR, IGF-II immobilised, kinetic fit
Formally, pKd is defined as -log10 of the concentration c, with c in mol/L.

Binder	pKd
IGF2R domain 11 with tyrosine at position 1544 (E1544Y) (receptor) NEHDDCQVTNPSTGHLFDLSSLSGRAGFTAAYSYKGLVYMSICGENENCPPGVGACFGQTRISVGKANKRLRYVDQVLQLVYKDGSPCPSKSGLSYKSVISFVCRPEAGPTNRPMLISLDKQTCTLFFSWHTPLACEQATHHHHHH	7.19

# next binder below
For IGF2R domain 11 with isoleucine at position 1544 (E1544I) (receptor) NEHDDCQVTNPSTGHLFDLSSLSGRAGFTAAYSIKGLVYMSICGENENCPPGVGACFGQTRISVGKANKRLRYVDQVLQLVYKDGSPCPSKSGLSYKSVISFVCRPEAGPTNRPMLISLDKQTCTLFFSWHTPLACEQATHHHHHH , what is its reported pKd?
7.30
